- Assay overview: CR6086 pharmacokinetics in rats
- Type: in vivo, rat
- Test parameters: rat, plasma; oral, 1 mg/kg; median
Quantity name: Tmax (min)
The figure you give is taken to be in min; do not add the unit.

Task: Please look up its Tmax: O=C([O-])c1ccc(C2(NC(=O)[C@H]3CC4(CCN3Cc3ccc(C(F)(F)F)cc3)CC4)CC2)cc1.[Na+] [CR6086]
Result: 15

---

- System: IL-23 release
- Assay overview: IL-23 release from human dendritic cells
- Assay type: cell-based
- Test parameters: Dendritic cell, PGE2-stimulated, 24 h
Quantity name: pIC50
pIC50 is defined as minus the log10 of a concentration measured in mol/L.

Task: Which measured pIC50 belongs to O=C([O-])c1ccc(C2(NC(=O)[C@H]3CC4(CCN3Cc3ccc(C(F)(F)F)cc3)CC4)CC2)cc1.[Na+] [CR6086] , tested on IL-23 release?
Result: 6.22
